# MEASURED ON: T1, human CD155 (poliovirus receptor, PVR) on cells (U87/U87MG, HAP1) (human, UniProt P15151 21-417)
# T1 construct: whole, on cells
# T1 sequence (looked up): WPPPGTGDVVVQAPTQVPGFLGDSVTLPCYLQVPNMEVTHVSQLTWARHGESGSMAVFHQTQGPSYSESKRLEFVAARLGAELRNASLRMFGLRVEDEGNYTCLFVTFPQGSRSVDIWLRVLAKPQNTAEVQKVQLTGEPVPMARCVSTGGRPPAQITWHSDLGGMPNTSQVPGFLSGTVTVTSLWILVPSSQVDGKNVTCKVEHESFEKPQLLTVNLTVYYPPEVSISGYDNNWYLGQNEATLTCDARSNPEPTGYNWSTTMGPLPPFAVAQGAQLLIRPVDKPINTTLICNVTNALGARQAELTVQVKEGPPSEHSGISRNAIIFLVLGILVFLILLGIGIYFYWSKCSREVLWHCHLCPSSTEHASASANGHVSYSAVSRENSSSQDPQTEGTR
# PROTOCOL DESCRIPTION: cell binding on HAP-1 cells
PROPERTY: EC50 (µg/mL)
Please give a number only; it is taken to be in µg/mL.

BINDER: VH4 N54Q D56E / VK3 N92E (antibody, V domains shown, Humanized variant of Ab825; also called antibody (v)) VH: EVQLVQSGSELKKPGASVKVSCKTSGYTFTEYTMHWVRQPHGKGLEWIGGIHPNQGETSYNQRFKGRVTITVDKSTSTAYMELSSLRSEDTAVYYCARWTGDFDYWGQGTLVTVSS VL: DIQMTQSPSAMSASVGDRVTITCKASQNVGTNVAWYQQKPGQPPKALIYSASYRYSGVPDRFSGSGSGTDFTLTISSLQAEDLAEYFCQQYESYPYTFGQGTKLEIK
EC50 (µg/mL): 0.097
//
BINDER: VH3 N54S D56G / VK3 N92Q (antibody, V domains shown, Humanized variant of Ab825; also called antibody (iv); Sample 3) VH: EVQLVQSGSELKKPGASVKISCKTSGYTFTEYTMHWVRQPHGKGLEWIGGIHPNSGGTSYNQRFKGRVTLTVDKSTSTAYMELSSLRSEDTAVYYCARWTGDFDYWGQGTLVTVSS VL: DIQMTQSPSAMSASVGDRVTITCKASQNVGTNVAWYQQKPGQPPKALIYSASYRYSGVPDRFSGSGSGTDFTLTISSLQAEDLAEYFCQQYQSYPYTFGQGTKLEIK
EC50 (µg/mL): 0.0381

Task: Report EC50 for VH4 N54Q D56E / VK3 N92Q (antibody, V domains shown, Humanized variant of Ab825; also called antibody (viii)) VH: EVQLVQSGSELKKPGASVKVSCKTSGYTFTEYTMHWVRQPHGKGLEWIGGIHPNQGETSYNQRFKGRVTITVDKSTSTAYMELSSLRSEDTAVYYCARWTGDFDYWGQGTLVTVSS VL: DIQMTQSPSAMSASVGDRVTITCKASQNVGTNVAWYQQKPGQPPKALIYSASYRYSGVPDRFSGSGSGTDFTLTISSLQAEDLAEYFCQQYQSYPYTFGQGTKLEIK
Result: 0.108

Task: Report EC50 for VH3 N54Q D56E / VK3 N92E (antibody, V domains shown, Humanized variant of Ab825; also called antibody (iii)) VH: EVQLVQSGSELKKPGASVKISCKTSGYTFTEYTMHWVRQPHGKGLEWIGGIHPNQGETSYNQRFKGRVTLTVDKSTSTAYMELSSLRSEDTAVYYCARWTGDFDYWGQGTLVTVSS VL: DIQMTQSPSAMSASVGDRVTITCKASQNVGTNVAWYQQKPGQPPKALIYSASYRYSGVPDRFSGSGSGTDFTLTISSLQAEDLAEYFCQQYESYPYTFGQGTKLEIK
Result: 0.115
